Assay: Oral bioavailability in Wistar Han rat at 5 mg/kg administrated for 24 hrs by LC-MS/MS analysis
Type: ADME, organism-based
Settings: in vivo
Readings of bioavailability for the listed compounds
Write down the numeric answer in % and omit the unit.

Field request: bioavailability | item: CC(=O)N1c2cnc(NC(=O)O[C@@H](C)C(C)(C)C)nc2C2(CCC(F)(F)CC2)C1(C)C
47

Then this compound: CC(=O)N1CCC(C)(c2ccccc2)c2cc(NC(=O)CCc3cccc(C(F)(F)F)c3)ccc21 (racemic)
8

====

Assay: Cmax in Wistar Han rat at 5 mg/kg,po administrated for 24 hrs by LC-MS/MS analysis
Assay type: ADME, organism-based
Parameters: dose 5 mg/kg, time 24 hrs, route po
Conditions: in vivo
readout_kind: Cmax (ng/mL)
Express the result in ng/mL but write the number alone.

# Cmax lookup, item CC(=O)N1c2cnc(NC(=O)O[C@@H](C)C(C)(C)C)nc2C2(CCC(F)(F)CC2)C1(C)C
145

Follow-up item: CC(=O)N1CCC(C)(c2ccccc2)c2cc(NC(=O)CCc3cccc(C(F)(F)F)c3)ccc21 (racemic)
52

Hey, just so you know, these numbers are from ChEMBL document CHEMBL5252644.
